assayed target: T1, rat NPR-A (rat, UniProt P18910 29-1057)
T1 sequence (looked up): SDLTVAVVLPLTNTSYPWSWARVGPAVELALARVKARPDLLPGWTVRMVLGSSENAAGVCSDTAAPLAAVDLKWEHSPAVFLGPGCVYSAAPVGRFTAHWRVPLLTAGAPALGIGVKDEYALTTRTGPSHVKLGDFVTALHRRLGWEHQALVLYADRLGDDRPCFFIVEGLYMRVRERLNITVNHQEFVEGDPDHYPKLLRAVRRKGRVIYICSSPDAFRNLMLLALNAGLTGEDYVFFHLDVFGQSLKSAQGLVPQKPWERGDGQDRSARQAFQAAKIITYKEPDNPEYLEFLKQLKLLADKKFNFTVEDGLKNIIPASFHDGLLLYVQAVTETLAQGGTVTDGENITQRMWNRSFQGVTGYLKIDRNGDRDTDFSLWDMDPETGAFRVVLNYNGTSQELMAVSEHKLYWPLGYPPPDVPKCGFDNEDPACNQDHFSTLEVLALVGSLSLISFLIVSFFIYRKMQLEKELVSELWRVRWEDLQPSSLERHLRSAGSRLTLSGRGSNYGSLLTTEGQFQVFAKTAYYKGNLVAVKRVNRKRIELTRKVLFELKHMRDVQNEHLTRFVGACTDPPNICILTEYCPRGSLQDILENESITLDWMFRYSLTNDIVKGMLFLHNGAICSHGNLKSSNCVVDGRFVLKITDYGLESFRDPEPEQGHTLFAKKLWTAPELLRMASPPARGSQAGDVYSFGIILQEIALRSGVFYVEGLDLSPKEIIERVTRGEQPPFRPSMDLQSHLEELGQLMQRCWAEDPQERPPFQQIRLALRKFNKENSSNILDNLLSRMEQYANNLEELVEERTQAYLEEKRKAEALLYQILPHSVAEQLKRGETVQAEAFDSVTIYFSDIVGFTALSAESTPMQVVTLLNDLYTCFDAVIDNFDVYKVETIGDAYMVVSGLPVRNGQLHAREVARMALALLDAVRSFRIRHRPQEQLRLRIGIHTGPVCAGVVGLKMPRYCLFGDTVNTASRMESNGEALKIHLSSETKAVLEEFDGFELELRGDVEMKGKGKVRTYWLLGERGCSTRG
assay name: cell-based or functional assay
Positions of bridges follow the written chain, without caps; N, C: chain ends. No end group written: not given here.
Measured Rate of generation of cGMP (pmol cGMP/pmol peptide), listed per entry.
Write the number in pmol cGMP/pmol peptide without appending the unit.

Field: example entries. Status: answers known.
binder	output unit	value measured
GLLISCFDRRIDRISHTSDIGCRH (disulfide 6-22) [K-Ring]	pmol cGMP/pmol peptide	0.0228
GLLISCFGRRIDRISHTSGIGCRH (disulfide 6-22) [^GRGK-Ring]	pmol cGMP/pmol peptide	0.19

The measured Rate of generation of cGMP (pmol cGMP/pmol peptide) associated with GLLISCFDGRIDRISHTSDIGCRH (disulfide 6-22) [^DGDK-Ring] reads 0.005

Record summary for SLRRSSCFDGRMDRIGAQSDLGCNSFRY (disulfide 7-23 (inferred)) [^DGDANP] : reported Rate of generation of cGMP (pmol cGMP/pmol peptide) = 0.14

// Rate of generation of cGMP (pmol cGMP/pmol peptide) lookup, binder = GLLISCFDRRIDRISHTSGIGCRH (disulfide 6-22) [^DRGK-Ring] , result: 0.007

Field Rate of generation of cGMP (pmol cGMP/pmol peptide) (entry GLLISCFDRRIDRISHTSDIGCNSFRY (disulfide 6-22) [K-Ring^NSFRY] ) reads 0.31

Rate of generation of cGMP (pmol cGMP/pmol peptide) in this record for SLRRSSCFDRRMDRIGAQSDLGCNSFRY (disulfide 7-23 (inferred)) [^DRDANP] : 0.38

For GLLISCFGRRIDRISHTSDIGCRH (disulfide 6-22) [^GRDK-Ring] the binder record lists Rate of generation of cGMP (pmol cGMP/pmol peptide) as 0.113
